# assay-summary: Stability analysis of DDD599/BPCA (pH buffers, simulated gastric fluid, glutathione)
# Assay type: physicochemical
# condition-info: pH 10; pH10 Ox = Britton Robinson pH10 buffer + 20M% H2O2
measured-attribute: half-life
Express your answer as a number followed by its unit.

*Q* # query: half-life of entry O=C(CCl)Nc1ccc(Br)cc1 [BPCA, N-(4-bromophenyl)-2-chloroacetamide]
*A* 92 h

---

# tgt: recombinant luciferase (Photinus pyralis) (Photinus pyralis, UniProt P08659)
# Construct: purchased Promega E1701
# Sequence (P08659 whole entry): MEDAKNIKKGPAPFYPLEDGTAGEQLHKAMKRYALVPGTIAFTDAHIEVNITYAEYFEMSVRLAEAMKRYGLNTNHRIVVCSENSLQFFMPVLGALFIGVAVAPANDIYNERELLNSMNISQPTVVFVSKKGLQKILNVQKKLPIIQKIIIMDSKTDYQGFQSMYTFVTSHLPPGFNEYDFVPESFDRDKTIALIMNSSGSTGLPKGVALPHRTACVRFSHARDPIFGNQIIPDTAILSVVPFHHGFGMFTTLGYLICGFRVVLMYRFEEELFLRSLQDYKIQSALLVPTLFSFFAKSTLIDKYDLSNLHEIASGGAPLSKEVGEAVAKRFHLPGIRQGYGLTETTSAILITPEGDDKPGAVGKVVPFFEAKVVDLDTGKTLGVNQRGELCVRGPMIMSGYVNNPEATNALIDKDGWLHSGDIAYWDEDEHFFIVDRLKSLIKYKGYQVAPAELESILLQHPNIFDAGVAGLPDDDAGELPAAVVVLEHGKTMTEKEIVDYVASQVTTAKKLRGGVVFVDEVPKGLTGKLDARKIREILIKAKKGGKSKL
# assay-summary: Recombinant luciferase inhibition assay
# Assay type: biochemical
# condition-info: read-out: Recombinant luciferase IC50
pIC50: −log10 of the molar value.
measured-attribute: pIC50

*Q* // pIC50 lookup, key: CNc1cc(C)nc(NC2CCCN(C3Cc4ccccc4C3)C2)n1 (stereo not shown) [DDD01243506]
*A* ≤ 4.30
